Data provenance: paper PMC2826162

- system.name: C334ACYP101 (Pseudomonas putida, UniProt P00183, C335A)
- Sequence (P00183 whole entry C335A): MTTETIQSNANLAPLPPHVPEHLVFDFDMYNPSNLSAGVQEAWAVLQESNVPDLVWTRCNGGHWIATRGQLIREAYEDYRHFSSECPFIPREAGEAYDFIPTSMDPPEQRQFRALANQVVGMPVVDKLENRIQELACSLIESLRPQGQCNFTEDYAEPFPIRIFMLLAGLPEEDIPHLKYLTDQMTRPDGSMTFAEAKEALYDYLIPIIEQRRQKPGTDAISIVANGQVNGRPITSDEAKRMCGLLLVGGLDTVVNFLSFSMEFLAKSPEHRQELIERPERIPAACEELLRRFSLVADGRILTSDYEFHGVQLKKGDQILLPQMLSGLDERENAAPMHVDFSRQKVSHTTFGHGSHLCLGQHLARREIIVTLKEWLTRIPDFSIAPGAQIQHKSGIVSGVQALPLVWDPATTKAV
- run.description: biochemical
- Format: binding
Consider the following molecules; for each one, report its pKd.
// pKd: -log10(molar conc.)

# pKd of O=C1C2CC3CC(C2)CC1C3 = 5.54

# pKd of CC12CCC(CC1=O)C2(C)C (centres unmarked) = 5.32
